The following compounds are shown together with reported VEGF_ADSC\ECFC Angio CD31 TubeArea IC50/EC50 values.
Test system: endothelial tube formation in co-cultures of ECFCs and ADSCs treated with VEGF
Test: cells
Type: cell-based, human
Where a SMILES comes first, the peptide text is derived from it. Bridges are numbered along the chain shown (N, C = ends). [ ]: non-standard residue; d: D form. hArg = N=C(N)NCCCC[C@H](N)C(=O)O; Mpa = O=C(O)CCS
Quantity: VEGF_ADSC\ECFC Angio CD31 TubeArea IC50/EC50 (µM)

Compound	Target of assay	Bound type	Experimental value
O=C(CCN1CCC(c2ccccc2)C1)c1ccc2c(c1)OCCO2 (centres unmarked)	endothelial tube formation in co-cultures of ECFCs and ADSCs treated with VEGF	>	10
CN(C)CCOC1=Cc2ccccc2Sc2ccc(Cl)cc21	endothelial tube formation in co-cultures of ECFCs and ADSCs treated with VEGF	>	10
[O-][n+]1ccccc1SSc1cccc[n+]1[O-]	endothelial tube formation in co-cultures of ECFCs and ADSCs treated with VEGF	=	0.719
Clc1ccc(CSC(Cn2ccnc2)c2ccc(Cl)cc2Cl)cc1.O=[N+]([O-])O (centres unmarked)	endothelial tube formation in co-cultures of ECFCs and ADSCs treated with VEGF	=	2.1282
O=C(CCBr)N1CCN(C(=O)CCBr)CC1	endothelial tube formation in co-cultures of ECFCs and ADSCs treated with VEGF	=	1.3723
CCCCN1CCCC1C(=O)Nc1c(C)cc(C)cc1C (centres unmarked)	endothelial tube formation in co-cultures of ECFCs and ADSCs treated with VEGF	>	10
CC(C)Cn1cnc2c1c(=O)n(C)c(=O)n2C	endothelial tube formation in co-cultures of ECFCs and ADSCs treated with VEGF	>	10
CCCCCCCCCCCCCCCCCCCCCC(=O)Nc1ccn([C@@H]2O[C@H](CO)[C@@H](O)[C@@H]2O)c(=O)n1	endothelial tube formation in co-cultures of ECFCs and ADSCs treated with VEGF	>	10
C/C(=C(/OCCOc1ccc(Cl)cc1)c1ccc(Cl)cc1Cl)n1ccnc1	endothelial tube formation in co-cultures of ECFCs and ADSCs treated with VEGF	=	5.8398
CCCCCCCCCCCCCCCC[N+](C)(C)Cc1ccccc1.[Cl-]	endothelial tube formation in co-cultures of ECFCs and ADSCs treated with VEGF	=	2.5333
O=C(O)C1(C(=O)O)CCC1.[NH2-].[NH2-].[Pt+2]	endothelial tube formation in co-cultures of ECFCs and ADSCs treated with VEGF	>	10
Cc1nc2ccc(CN(C)c3ccc(C(=O)N[C@@H](CCC(=O)O)C(=O)O)s3)cc2c(=O)[nH]1	endothelial tube formation in co-cultures of ECFCs and ADSCs treated with VEGF	=	0.3544
CCN[C@@H](C)Cc1cccc(C(F)(F)F)c1	endothelial tube formation in co-cultures of ECFCs and ADSCs treated with VEGF	>	10
COC(=O)N[C@H](C(=O)N[C@@H](Cc1ccccc1)[C@@H](O)CN(Cc1ccc(-c2ccccn2)cc1)NC(=O)[C@@H](NC(=O)OC)C(C)(C)C)C(C)(C)C	endothelial tube formation in co-cultures of ECFCs and ADSCs treated with VEGF	>	10
O=C(O)c1ccc(-n2nc(-c3ccccc3O)nc2-c2ccccc2O)cc1	endothelial tube formation in co-cultures of ECFCs and ADSCs treated with VEGF	=	2.0862
CN(C)C(=O)Oc1cccc([N+](C)(C)C)c1.[Br-]	endothelial tube formation in co-cultures of ECFCs and ADSCs treated with VEGF	>	10
NC(=O)[C@@H]1CSSCCC(=O)N[C@@H](CCCCN=C(N)N)C(=O)NCC(=O)N[C@@H](CC(=O)O)C(=O)N[C@@H](Cc2c[nH]c3ccccc23)C(=O)N2CCC[C@H]2C(=O)N1 [NCGC00263524-01] ([Mpa][hArg]GDWPC-NH2; disulfide 1-7)	endothelial tube formation in co-cultures of ECFCs and ADSCs treated with VEGF	>	10
